The origin of these recorded values is patent US9125937B2.

Radioactive concentration in tumour (tumoural uptake) reference
- Test system: B16 F0 murine melanoma
- Test method notes: Biodistribution study by planar scintigraphic imaging (gamma camera), tumour uptake quantification
- Format: in vivo, C57BL6 male mice
- Assay setup: 6 H post injection, i.v.

As a guide, the following entries are already answered.
(Q) I'd like to know its Radioactive concentration in tumour (tumoural uptake). The molecule in question is CCN(CC)CCNC(=O)c1cc(F)c2cc([125I])ccc2n1 [[^125I]106]
(A) 9.5 ± 1.8 % ID/g

(Q) Query CCN(C/C=C/CF)CCNC(=O)c1cnc2cc([125I])ccc2n1.Cl.Cl [[^125I]57] next
(A) 13.9 ± 1.3 % ID/g

(Q) Queued: CCN(CCNC(=O)c1cccc2nc3cc([125I])ccc3nc12)CCOc1cccnc1F.Cl.Cl [[^125I]85]
(A) 13.8 ± 2.5 % ID/g

(Q) Request: CCN(CC)Cc1ccnc(F)c1CNC(=O)c1cnc2cc([125I])ccc2n1.Cl.Cl [[^125I]92]
(A) 6.7 ± 1.9 % ID/g

More entries:
(Q) Field request: Radioactive concentration in tumour (tumoural uptake) | item: CCN(CCNC(=O)c1cnc2cc([125I])ccc2n1)CCc1ccnc(F)c1.Cl.Cl [[^125I]47]
(A) 14.5 ± 6.6 % ID/g

###

- Test system: B16 F0 murine melanoma
- Test method notes: Biodistribution study by planar scintigraphic imaging (gamma camera), tumour uptake quantification
- Assay type: in vivo, C57BL6 male mice
- Assay setup: 6 H post injection, i.v.
Where a name gives a salt, the structure may show the parent alone.
Each item that follows carries a reported Radioactive concentration in tumour (tumoural uptake).
Could you give me the number in % ID/g? Just the number is fine.

Answered cases to consult:
(Q) Item CCN(CCNC(=O)c1cnc2cc([125I])ccc2n1)CCOc1cccnc1F [[^125I]11, dihydrochloride salt] with B16 F0 murine melanoma - Radioactive concentration in tumour (tumoural uptake)?
(A) 18.8

(Q) Then CCN(CC)CCNC(=O)c1cnc2cc([125I])ccc2n1 [[^125I]ICF01012, reference compound] ?
(A) 29.6

(Q) Next compound up: CCN(CCNC(=O)c1cnc2cc([125I])ccc2n1)CCNc1cccc(F)n1 [[^125I]17, dihydrochloride salt]
(A) 12.5

More entries:
(Q) Checklist item: Radioactive concentration in tumour (tumoural uptake) tested on B16 F0 murine melanoma, entry CCN(CCCc1ccnc(F)c1)CCNC(=O)c1cnc2cc([125I])ccc2n1.Cl.Cl [[^125I]53] , value?
(A) 14.1

###

- System: B16 F0 murine melanoma
- Test method notes: Biodistribution study by planar scintigraphic imaging (gamma camera), tumour uptake quantification
- Format: in vivo, C57BL6 male mice
- Assay setup: 1 H post injection, i.v.
Where a name gives a salt, the structure may show the parent alone.
Rule for this label: true means Radioactive concentration in tumour (tumoural uptake) is less than 10 % ID/g; false means Radioactive concentration in tumour (tumoural uptake) is at least 10 % ID/g.

(Q) Problem: For the molecule CCN(CCNC(=O)c1cnc2cc([125I])ccc2n1)Cc1ccnc(F)c1.Cl.Cl [[^125I]34] , is Radioactive concentration in tumour (tumoural uptake) under 10 % ID/g?
(A) false

(Q) // same read-out, input: CCN(CC)CCNC(=O)c1cc(F)c2cc([125I])ccc2n1 [[^125I]106]
(A) true

(Q) Similarly, CCN(CCNC(=O)c1cnc2cc([125I])ccc2n1)CCOc1cccnc1F [[^125I]11, dihydrochloride salt] ?
(A) false

(Q) Try the molecule CCN(CCCc1ccnc(F)c1)CCNC(=O)c1cnc2cc([125I])ccc2n1.Cl.Cl [[^125I]53]
(A) true

(Q) Same again, this time with CCN(CC)CCNC(=O)c1cnc2cc([125I])ccc2n1 [[^125I]ICF01012, reference compound]
(A) false

(Q) Okay, and CCN(CCNC(=O)c1cccc2nc3cc([125I])ccc3nc12)CCOc1cccnc1F.Cl.Cl [[^125I]85] ?
(A) false

(Q) Check CCN(CCF)CCNC(=O)c1cnc2cc([125I])ccc2n1 [[^125I]26, dihydrochloride salt] too.
(A) false

Query molecule follows.
(Q) Threshold test, Radioactive concentration in tumour (tumoural uptake) < 10 % ID/g: CCN(CCNC(=O)c1cnc2cc([125I])ccc2n1)CCNc1cccc(F)n1 [[^125I]17, dihydrochloride salt]
(A) false

###

- Tested on: B16 F0 murine melanoma
- Test method notes: Biodistribution study by planar scintigraphic imaging (gamma camera), tumour uptake quantification
- Format: in vivo, C57BL6 male mice
- Assay setup: 240 H post injection, i.v.
Where a name gives a salt, the structure may show the parent alone.
Quantity measured: Radioactive concentration in tumour (tumoural uptake) (% ID/g)
Give your result in % ID/g as a bare value.

(Q) Param item = CCN(CC)Cc1ccnc(F)c1CNC(=O)c1cnc2cc([125I])ccc2n1.Cl.Cl [[^125I]92] ; retrieve measured Radioactive concentration in tumour (tumoural uptake).
(A) 0.8

(Q) Try the compound CCN(CC)CCNC(=O)c1cnc2cc([125I])ccc2n1 [[^125I]ICF01012, reference compound]
(A) 1.9

(Q) Record: CCN(CCF)CCNC(=O)c1cnc2cc([125I])ccc2n1 [[^125I]26, dihydrochloride salt]
(A) 1.6

Now consider a different compound.
(Q) Please give the measured Radioactive concentration in tumour (tumoural uptake) for this compound: CCN(CCNC(=O)c1ccc2cncc([125I])c2n1)CCOc1cccnc1F.Cl.Cl [[^125I]74]
(A) 0.5

###

- System: B16 F0 murine melanoma
- Test method notes: Biodistribution study by planar scintigraphic imaging (gamma camera), tumour uptake quantification
- Type: in vivo, C57BL6 male mice
- Assay setup: 120 H post injection, i.v.
Structures can show the parent of a compound that is named as a salt.
Quantity measured: Radioactive concentration in tumour (tumoural uptake) (% ID/g)
Output spec: scalar in % ID/g, unitless text.

(Q) Which Radioactive concentration in tumour (tumoural uptake) is listed for CCN(CCNC(=O)c1cnc2cc([125I])ccc2n1)CCOc1cccnc1F [[^125I]11, dihydrochloride salt] ?
(A) 5.2

(Q) Lookup CCN(CCNC(=O)c1cnc2cc([125I])ccc2n1)CCNc1cccc(F)n1 [[^125I]17, dihydrochloride salt]
(A) 2.6

(Q) Now try CCN(CC)CCNC(=O)c1cc(F)c2cc([125I])ccc2n1 [[^125I]106] .
(A) 3.0

***
(Q) Form field: reported Radioactive concentration in tumour (tumoural uptake) of CCN(CCF)CCNC(=O)c1cnc2cc([125I])ccc2n1 [[^125I]26, dihydrochloride salt]
(A) 8.4

(Q) Next molecule: CCN(CCNC(=O)c1cnc2cc([125I])ccc2n1)Cc1ccnc(F)c1.Cl.Cl [[^125I]34]
(A) 7.1

(Q) Continue with CCN(CCNC(=O)c1cnc2cc([125I])ccc2n1)CCc1ccnc(F)c1.Cl.Cl [[^125I]47]
(A) 5.2

(Q) Now the same for CCN(C/C=C/CF)CCNC(=O)c1cnc2cc([125I])ccc2n1.Cl.Cl [[^125I]57]
(A) 5.6

(Q) Could you do the same for CCN(CCNC(=O)c1ccc2cncc([125I])c2n1)CCOc1cccnc1F.Cl.Cl [[^125I]74] , please?
(A) 1.6

###

- System: B16 F0 murine melanoma
- Test method notes: Biodistribution study by planar scintigraphic imaging (gamma camera), tumour uptake quantification
- Type: in vivo, C57BL6 male mice
- Assay setup: 240 H post injection, i.v.
Counter-ions that a name gives are not always drawn.
Quantity measured: Radioactive concentration in tumour (tumoural uptake) (% ID/g)
# output: bare number, implied unit % ID/g

(Q) Any idea what its Radioactive concentration in tumour (tumoural uptake) is? The compound is CCN(CCNC(=O)c1cnc2cc([125I])ccc2n1)CCc1ccnc(F)c1.Cl.Cl [[^125I]47]
(A) 1.6

(Q) What about this compound? CCN(CC)CCNC(=O)c1cc(F)c2cc([125I])ccc2n1 [[^125I]106]
(A) 1.5

(Q) Now give it for CCN(CCNC(=O)c1cnc2cc([125I])ccc2n1)CCNc1cccc(F)n1 [[^125I]17, dihydrochloride salt] too.
(A) 0.8

(Q) Follow-up item: CCN(CCNC(=O)c1cnc2cc([125I])ccc2n1)Cc1ccnc(F)c1.Cl.Cl [[^125I]34]
(A) 1.9

(Q) Now the same for CCN(CCCc1ccnc(F)c1)CCNC(=O)c1cnc2cc([125I])ccc2n1.Cl.Cl [[^125I]53]
(A) 1.4

(Q) What about CCN(CCNC(=O)c1cnc2cc([125I])ccc2n1)CCOc1cccnc1F [[^125I]11, dihydrochloride salt] ?
(A) 1.7

(Q) Please do the same for CCN(CCNC(=O)c1cccc2nc3cc([125I])ccc3nc12)CCOc1cccnc1F.Cl.Cl [[^125I]85] as well.
(A) 1.2

Next:
(Q) Find the recorded Radioactive concentration in tumour (tumoural uptake) belonging to CCN(C/C=C/CF)CCNC(=O)c1cnc2cc([125I])ccc2n1.Cl.Cl [[^125I]57] and report it.
(A) 1.9
